Where do these numbers come from? They come from paper PMC3196554.

- RECORDED_CONDITIONS: Subject S-005; metabolites as % of dose of parent MeIQx or PhIP
// NB: equality with 2 % Dose counts as criterion not met; only % Dose in urine collected for 10 h after consumption of cooked beef strictly below is criterion met

Cc1cnc2ccc3c(nc(N)n3C)c2n1	criterion not met
Cn1c(N(O)[C@@H]2O[C@H](C(=O)O)[C@@H](O)[C@H](O)[C@H]2O)nc2ncc(-c3ccccc3)cc21	criterion not met
Cn1c(N)nc2ncc(-c3ccc(O)cc3)cc21	criterion met
Cn1c(=NO)n([C@@H]2O[C@H](C(=O)O)[C@@H](O)[C@H](O)[C@H]2O)c2ncc(-c3ccccc3)cc21	criterion met
Cn1c(N)nc2ncc(-c3ccccc3)cc21	criterion met
